System: HLA Class I molecules
experimental details: HLA class I binding stability assay (pMHC-I complex dissociation, 125I-labeled β2m, scintillation counts)
Set-up: species or system human
measurement parameters: allele A02.01; 37° C.
Where no end group is shown, it is not given here.
Reported Stability (T1/2 (h)) values follow for various sequences

residues: LVVVGACGV
tgt: HLA Class I molecules
Stability (T1/2 (h)): 0.6

residues: WMTETLFDI
tgt: HLA Class I molecules
Stability (T1/2 (h)): 4

residues: YLGNHMNIA
tgt: HLA Class I molecules
Stability (T1/2 (h)): 0.6
